# System: Bromodomain-containing protein 4 (Homo sapiens) (UniProt O60885)
# Measurement Conditions: Compound concentration 20.0 uM, Protein concentration 2.0 uM, Result type QC Liability
Hi! Just check whether ΔTm is below -0.6 °C. Below gives MET, equal or above gives NOT MET.

- Chemical Smiles: "COc1ccc(CSc2nnc(-c3ccc4ncsc4c3)o2)cc1C(F)(F)F"
  System: "Bromodomain-containing protein 4 (Homo sapiens) (UniProt O60885)"
  Classification: "MET"
- Chemical Smiles: "COCCN1CCN(CCn2ccc(Nc3ncc4c(n3)-c3c(nn(C)c3-c3ccccc3)C[C@H]4C)n2)CC1"
  System: "Bromodomain-containing protein 4 (Homo sapiens) (UniProt O60885)"
  Classification: "MET"
- Chemical Smiles: "NC1(c2ccc(-c3nc4c(O)ccnn4c3-c3ccccc3)cc2)CCC1"
  System: "Bromodomain-containing protein 4 (Homo sapiens) (UniProt O60885)"
  Classification: "MET"
- Chemical Smiles: "C=CC(=O)Nc1cccc(C)c1Nc1ncc2cc(-c3c(Cl)c(OC)cc(OC)c3Cl)ccc2n1"
  System: "Bromodomain-containing protein 4 (Homo sapiens) (UniProt O60885)"
  Classification: "NOT MET"
- Chemical Smiles: "COc1cc(-c2cc3ncccc3c(OC[C@H]3CNC(=O)C3)n2)cc(OC)c1OC1CCOCC1"
  System: "Bromodomain-containing protein 4 (Homo sapiens) (UniProt O60885)"
  Classification: "MET"
- Chemical Smiles: "CN1C(=O)[C@@H](NC(=O)c2cc(Cc3ccccc3)on2)COc2ccccc21"
  System: "Bromodomain-containing protein 4 (Homo sapiens) (UniProt O60885)"
  Classification: "MET"
- Chemical Smiles: "Cc1nc2c(cc1F)c(-c1nnc3c(n1)NC(=O)C3(C)C)nn2Cc1cccc(F)c1F"
  System: "Bromodomain-containing protein 4 (Homo sapiens) (UniProt O60885)"
  Classification: "NOT MET"
- Chemical Smiles: "CC1CCN(C(=O)[C@H](CCn2cccc2C#N)NS(=O)(=O)c2cccc3[nH]ccc23)CC1"
  System: "Bromodomain-containing protein 4 (Homo sapiens) (UniProt O60885)"
  Classification: "NOT MET"
- Chemical Smiles: "CNc1nc(Nc2ccc(C(=O)N3CCOCC3)cc2OC)ncc1Cl"
  System: "Bromodomain-containing protein 4 (Homo sapiens) (UniProt O60885)"
  Classification: "MET"

* * *

# System: Transcription intermediary factor 1-alpha (Homo sapiens) (UniProt O15164)
# Measurement Conditions: Compound concentration 20.0 uM, Protein concentration 2.0 uM, Result type QC Liability
Param threshold (-1 °C) applies to ΔTm; output 1 when value >= threshold, 0 when value < threshold.

- Chemical Smiles: "Cc1cc(-c2cc3ncccc3c(OC[C@H]3CCCNC3)n2)ccc1N(C)C"
  Classification: 0
- Chemical Smiles: "CNS(=O)(=O)c1ccc(N(C)C)c(Nc2ncnc3cc(OC)c(OC)cc23)c1"
  Classification: 0
- Chemical Smiles: "CNCc1ccc(-c2cc(-c3nc(-c4ccc(S(=O)(=O)C(C)C)cc4)cnc3N)on2)cc1"
  Classification: 1
- Chemical Smiles: "CC(=O)Nc1nc(CN2CCC[C@H](Cc3cc(C)nc(C)c3)C2)cs1"
  Classification: 0
- Chemical Smiles: "N=C(N)NCCC[C@H](NC(=O)C(c1ccccc1)c1ccccc1)C(=O)NCc1ccc(CNC(N)=O)cc1"
  Classification: 1

* * *

# System: Transcription intermediary factor 1-alpha (Homo sapiens) (UniProt O15164)
# Sequence (whole entry): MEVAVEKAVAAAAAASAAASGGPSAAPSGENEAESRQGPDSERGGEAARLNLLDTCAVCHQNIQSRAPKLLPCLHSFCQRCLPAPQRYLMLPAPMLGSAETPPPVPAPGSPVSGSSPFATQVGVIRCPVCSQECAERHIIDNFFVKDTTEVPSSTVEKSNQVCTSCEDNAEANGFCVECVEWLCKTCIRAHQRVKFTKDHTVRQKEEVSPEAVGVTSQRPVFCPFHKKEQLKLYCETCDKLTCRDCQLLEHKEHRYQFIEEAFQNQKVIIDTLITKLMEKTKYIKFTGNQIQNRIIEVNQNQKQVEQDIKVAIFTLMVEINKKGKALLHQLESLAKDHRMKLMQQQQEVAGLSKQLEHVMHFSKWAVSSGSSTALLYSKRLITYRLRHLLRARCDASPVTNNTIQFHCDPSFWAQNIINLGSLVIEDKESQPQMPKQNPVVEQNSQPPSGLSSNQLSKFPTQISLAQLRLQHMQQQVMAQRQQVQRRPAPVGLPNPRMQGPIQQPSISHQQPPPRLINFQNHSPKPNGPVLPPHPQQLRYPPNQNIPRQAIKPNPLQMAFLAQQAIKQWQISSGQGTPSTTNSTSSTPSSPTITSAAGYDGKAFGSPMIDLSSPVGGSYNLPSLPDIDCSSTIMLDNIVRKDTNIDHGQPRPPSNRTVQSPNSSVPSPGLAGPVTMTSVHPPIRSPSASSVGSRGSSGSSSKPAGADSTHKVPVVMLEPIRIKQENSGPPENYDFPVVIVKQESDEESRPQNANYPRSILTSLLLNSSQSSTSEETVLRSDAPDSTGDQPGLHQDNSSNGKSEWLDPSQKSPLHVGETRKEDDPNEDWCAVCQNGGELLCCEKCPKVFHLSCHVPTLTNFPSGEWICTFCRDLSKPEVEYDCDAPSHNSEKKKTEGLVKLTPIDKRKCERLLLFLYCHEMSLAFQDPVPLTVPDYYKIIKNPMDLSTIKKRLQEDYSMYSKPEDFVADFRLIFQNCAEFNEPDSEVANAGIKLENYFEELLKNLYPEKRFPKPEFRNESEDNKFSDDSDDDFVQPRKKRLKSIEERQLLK
# Measurement Conditions: Compound concentration 20.0 uM, Protein concentration 2.0 uM, Result type QC Liability

- Molecule: "COc1cc2nc(C)nc(N[C@H](C)c3cc(N)cc(C(F)(F)F)c3)c2cc1O[C@H]1CCOC1"
  U: "°C"
  ΔTm: 0.8
- Molecule: "CC(C)N(CCCCOCC(=O)O)c1cnc(-c2ccccc2)c(-c2ccccc2)n1"
  U: "°C"
  ΔTm: -0.66
- Molecule: "CCCCCCC(Sc1nc(Cl)cc(NCc2ccc(-c3ccccc3)cc2)n1)C(=O)O (stereo unspecified)"
  U: "°C"
  ΔTm: 0.51
- Molecule: "Cn1cc(C(=O)O)c2ccc(N3CCC(OCc4c(-c5c(Cl)cccc5Cl)noc4C4CC4)CC3)cc21"
  U: "°C"
  ΔTm: -2.91
- Molecule: "CS(=O)(=O)NCC[C@H](NC(=O)c1cncc2c1cnn2-c1ccc(F)cc1)c1ccnc(S(C)(=O)=O)c1"
  U: "°C"
  ΔTm: 0.28
- Molecule: "Cc1nc2ccccc2c(-c2ccc3c4c(ccnc24)CCO3)c1[C@H](OC(C)(C)C)C(=O)O"
  U: "°C"
  ΔTm: 0.24

* * *

# System: Bromodomain-containing protein 4 (Homo sapiens)
# Measurement Conditions: Compound concentration 20.0 uM, Protein concentration 2.0 uM, Result type QC Liability
Measured Property: ΔTm

- Molecule: "Cc1cc(OCc2nc3ccccc3s2)ccc1NC(=O)Nc1ccc(Cl)c(Cl)c1"
  System: "Bromodomain-containing protein 4 (Homo sapiens)"
  Recorded Result: "0.28 °C"
- Molecule: "O=C(Nc1cccc(C(F)(F)F)c1)c1cccc(-n2cc(-c3ccco3)nn2)c1"
  System: "Bromodomain-containing protein 4 (Homo sapiens)"
  Recorded Result: "-12.8 °C"
- Molecule: "CCCCC[C@@](C)(O)/C=C/[C@H]1C(=O)CC(O)C1C/C=C\\CCCC(=O)O (stereo not given in full)"
  System: "Bromodomain-containing protein 4 (Homo sapiens)"
  Recorded Result: "-1.7 °C"
- Molecule: "COc1cc(F)ccc1-c1ncnc(Nc2cccc(C[S@](C)(=N)=O)c2)n1"
  System: "Bromodomain-containing protein 4 (Homo sapiens)"
  Recorded Result: "0.48 °C"
- Molecule: "CN1C(=O)Cc2ccc(-c3ccc(C[C@@H](C#N)NC(=O)[C@H]4N[C@@H]5CC[C@H]4C5)c(F)c3)cc21"
  System: "Bromodomain-containing protein 4 (Homo sapiens)"
  Recorded Result: "0.1 °C"
- Molecule: "CN(C)[C@H]1CCN(c2cc(C(F)(F)F)c(C#N)c(Nc3cccc(CCC(=O)O)c3)n2)C1"
  System: "Bromodomain-containing protein 4 (Homo sapiens)"
  Recorded Result: "-0.8 °C"
- Molecule: "Cc1cc(=O)oc2cc(NC(=O)[C@H](Cc3ccc(I)cc3)NC(=O)[C@H]3N[C@@H]4CC[C@H]3C4)ccc12"
  System: "Bromodomain-containing protein 4 (Homo sapiens)"
  Recorded Result: "-0.26 °C"
- Molecule: "CC(C)Nc1ncnc2cc(OCc3cccc([S@@](C)(=N)=O)c3)c(Br)cc12"
  System: "Bromodomain-containing protein 4 (Homo sapiens)"
  Recorded Result: "0.34 °C"
- Molecule: "O=C(NCCS(=O)(=O)c1ccc(C(F)(F)F)cn1)c1ccc(Cl)cc1"
  System: "Bromodomain-containing protein 4 (Homo sapiens)"
  Recorded Result: "-3.11 °C"
- Molecule: "NC(=O)c1sc2nc(N3CCC(NC[C@H](O)c4ccccn4)CC3)cc(C(F)(F)F)c2c1N"
  System: "Bromodomain-containing protein 4 (Homo sapiens)"
  Recorded Result: "-3.3 °C"
- Molecule: "COc1c(-c2cn(C3CCC(=O)NC3=O)nn2)csc1C(=O)N1CCCC1 (stereo not given)"
  System: "Bromodomain-containing protein 4 (Homo sapiens)"
  Recorded Result: "-0.9 °C"
- Molecule: "N#C/C(=C\\c1ccc(O)c(O)c1)C(=O)OCCc1cccs1"
  System: "Bromodomain-containing protein 4 (Homo sapiens)"
  Recorded Result: "-0.61 °C"
- Molecule: "CCCCCCCN(CCc1ccc(SC(C)(C)C(=O)O)cc1)C(=O)Nc1ccc(F)cc1F"
  System: "Bromodomain-containing protein 4 (Homo sapiens)"
  Recorded Result: "-1.9 °C"
- Molecule: "CC[C@@H](CO)Nc1nc(Nc2cccc(NC(=O)C(C)(C)C)c2)ncc1F"
  System: "Bromodomain-containing protein 4 (Homo sapiens)"
  Recorded Result: "-2.22 °C"
- Molecule: "Fc1ccc(-c2c3cccc(C(F)(F)F)c3nn2Cc2ccc(F)cc2Cl)cc1"
  System: "Bromodomain-containing protein 4 (Homo sapiens)"
  Recorded Result: "-3.53 °C"
- Molecule: "C[C@@H]1CC(=O)N(C2CC2)N=C1c1ccc(NC(=O)N2Cc3ccncc3C2)cc1"
  System: "Bromodomain-containing protein 4 (Homo sapiens)"
  Recorded Result: "-0.04 °C"
- Molecule: "Cn1nc(C(=O)NCc2ccc(C(=O)O)cc2)cc1-c1ccc2[nH]ccc2c1"
  System: "Bromodomain-containing protein 4 (Homo sapiens)"
  Recorded Result: "-0.1 °C"
- Molecule: "CC(C)S(=O)(=O)c1ccccc1Nc1nc(N[C@@H]2CCCN(CCCCCCCNC(=O)COc3cccc4c3C(=O)N(C3CCC(=O)N(C)C3=O)C4=O)C2)ncc1Cl (stereo not given in full)"
  System: "Bromodomain-containing protein 4 (Homo sapiens)"
  Recorded Result: "-2.43 °C"
- Molecule: "c1ccc(C(OC2CCN(CCCc3nnn[nH]3)CC2)c2ccccc2)cc1"
  System: "Bromodomain-containing protein 4 (Homo sapiens)"
  Recorded Result: "-1 °C"
- Molecule: "COc1ccc(-c2cc3c(C)nc(N)nc3n([C@H]3CC[C@H](OCCO)CC3)c2=O)cn1"
  System: "Bromodomain-containing protein 4 (Homo sapiens)"
  Recorded Result: "-0.11 °C"
- Molecule: "Cc1ccc2c(NS(=O)(=O)c3ccccc3Cl)cccc2c1Oc1ncccc1-c1ccnc(N[C@H]2CCCNC2)n1"
  System: "Bromodomain-containing protein 4 (Homo sapiens)"
  Recorded Result: "0.99 °C"
- Molecule: "Cc1cnc(-c2cnc(NCCNc3ccc(C#N)cn3)nc2-c2ccc(Cl)cc2Cl)[nH]1"
  System: "Bromodomain-containing protein 4 (Homo sapiens)"
  Recorded Result: "-2.28 °C"
- Molecule: "CC(C)c1nc2c(c3c1[C@@H](c1ccc(C(F)(F)F)cc1)OC31CCOCC1)[C@@H](O)CC(C)(C)C2"
  System: "Bromodomain-containing protein 4 (Homo sapiens)"
  Recorded Result: "-1.67 °C"
- Molecule: "NC(=O)C1CCCc2c1[nH]c1ccc(Cl)cc21 (stereo not given)"
  System: "Bromodomain-containing protein 4 (Homo sapiens)"
  Recorded Result: "-1.42 °C"
- Molecule: "Cc1nn(-c2nc3ccc(Cl)c(Cl)c3[nH]2)c(O)c1C1OC(=O)c2ccccc21 (stereo not given)"
  System: "Bromodomain-containing protein 4 (Homo sapiens)"
  Recorded Result: "-4.43 °C"
- Molecule: "COc1ccc(S(=O)(=O)N2CCOCC2)cc1Nc1ccc2c(n1)N(C1CCOCC1)[C@H](C)C(=O)N2C"
  System: "Bromodomain-containing protein 4 (Homo sapiens)"
  Recorded Result: "5.07 °C"
- Molecule: "N#Cc1ccc(COc2ccc(Br)cc2CNCCO)cn1"
  System: "Bromodomain-containing protein 4 (Homo sapiens)"
  Recorded Result: "-0.82 °C"
- Molecule: "CCc1cc2c(cc1N1CCC(N3CCOCC3)CC1)C(C)(C)c1[nH]c3cc(C#N)ccc3c1C2=O"
  System: "Bromodomain-containing protein 4 (Homo sapiens)"
  Recorded Result: "-2.92 °C"
- Molecule: "O=C(CCCCCCc1ccccc1)c1ncc(-c2ccccn2)o1"
  System: "Bromodomain-containing protein 4 (Homo sapiens)"
  Recorded Result: "-1.06 °C"
- Molecule: "NCCCc1c(C(=O)O)[nH]c2ccc(C(=O)Nc3ccccc3)cc12"
  System: "Bromodomain-containing protein 4 (Homo sapiens)"
  Recorded Result: "-2.73 °C"
